PTEN mRNA levels (% inhibition) overview
- Test system: PTEN mRNA
- Measurement protocol: PTEN mRNA levels in liver, real-time PCR (Example 14 in vivo study)
- Set-up: species or system mice
- Condition: 32 mg/kg single i.p., liver, 72 h
- Description: Six week old male Balb/c mice (Jackson Laboratory, Bar Harbor, Me.) were administered a single intraperitoneal (i.p) injection with 4′-CH2—O-2′ BNA containing oligomers (392745 and 392063) and 6(S)-4′-CH(CH3)—O-2′ BNA containing oligomers (392749 and 411847) at a does of 3.2, 10, 32, 66 and 100 mg/kg. […] Each dose group consisted of four animals. […] PTEN mRNA levels were determined relative to total RNA (using Ribogreen), prior to normalization to saline-treated control. […]
Number only, in %; omit the unit.

Sample answers from the record:
INSERT INTO measurements (substance, result) VALUES
  ('^MeC1T1TAGCACTGGC^MeC1T1 [ISIS 392063]', 88),
  ('^MeCSTSTAGCACTGGC^MeCSTS [ISIS 411847]', 87),
  ('C1U1TAGCACTGGCC1U1 [ISIS 392745]', 90);

With those in mind, consider the next substance.
Input: Dear colleague, I am looking for the recorded PTEN mRNA levels (% inhibition) of the following substance: CSUSTAGCACTGGCCSUS [ISIS 392749]
Output: 81
